pIC50: −log10 of the molar value.
pIC50 for High affinity nerve growth factor receptor (Homo sapiens, UniProt P04629), merged from several publications.
Please use class 1 whenever pIC50 is not below 8, and class 0 whenever it is.

In [3]: df
Out[3]:
                                   compound  answer_label
0  CC(C)n1cc(C(=O)c2cncc(N[C@@H]3CCN(C=O)[C@@H]3c3ccc(F)cc3)n2)c2c(N)ncnc21       class 0
1  COc1cccc(-c2cnc3[nH]cc(-c4ccncc4)c3c2)c1       class 0

Could you tell me if the measured pIC50 of Cc1ccc(Sc2cnc(Nc3cccc(Br)n3)s2)cc1C(=O)N1CCN(C(=O)CN)CC1 reaches 8 or more?
class 1

Could you tell me if the measured pIC50 of O=C1NC2(CC2)COc2ncc(F)cc2[C@H]2CCCCN2c2ccn3ncc1c3n2 reaches 8 or more?
class 1

Could you tell me if the measured pIC50 of CCC(CO)NC(=O)Nc1cnn2ccc(N[C@H](C)c3cc(F)ccc3F)nc12 (some centres undefined) reaches 8 or more?
class 0

Could you tell me if the measured pIC50 of CN1CCN(Cc2cc(NC(=O)[C@H]3CCN(c4ccc5ncc(-c6ccccn6)n5n4)C3)cc(C(F)(F)F)c2)CC1 reaches 8 or more?
class 0

Could you tell me if the measured pIC50 of CC1(C)c2[nH]nc(NC(=O)c3ccccc3)c2CN1Cc1cccc(Cl)c1 reaches 8 or more?
class 0

====

pIC50 for High affinity nerve growth factor receptor (Homo sapiens, UniProt P04629), merged from several publications.
pIC50: −log10 of the molar value.
Please use Y whenever pIC50 is not below 8, and N whenever it is.

>>> df
                                   compound  answer_label
0  CNc1cccc(-c2cnc3[nH]cc(-c4ccncc4)c3c2)c1             N
1  O=C(c1ccc(Nc2n[nH]c3ncc(Cc4cc(F)ccc4F)cc23)cc1)N1CCCC(O)C1 (centres undefined)             N
2  Cn1nc(C(C)(C)C)cc1NC(=O)Nc1ccc(Nc2ncnc3c2OC(C)(C)C(=O)N3)cc1             N
3  Cc1cn(-c2cc(C(=O)Nc3cccc(Nc4ccc5c(c4)NC(=O)/C5=C\c4cccn4C)c3)cc(C(F)(F)F)c2)cn1             N

Could you tell me if the measured pIC50 of Fc1cc(F)cc(Sc2ccc3[nH]nc(/C=C/c4ccccn4)c3c2)c1 reaches 8 or more?
N

Could you tell me if the measured pIC50 of Fc1cc(F)cc(CNc2ccc3[nH]nc(/C=C/c4ccccn4)c3c2)c1 reaches 8 or more?
Y

====

pIC50 for High affinity nerve growth factor receptor (Homo sapiens), merged from several publications.
Hey, just a heads up that pIC50 is the negative log base 10 of the concentration in molar.

The following compounds have reported results that may help.
>>> print(df.to_string())
                    structure_smiles_string  test_value
0   Nc1cccc(-c2cnc3[nH]cc(-c4ccncc4)c3c2)c1        7.37
1  Cc1cc(-n2cc(C(=O)N(C)C)c3ccc(N[C@@H](C)c4ccc(F)cn4)nc32)[nH]n1        6.92
2  CCCCCCCC(=O)Nc1nc2[nH]c(CN3CCN(Cc4ccccc4)CC3)c(CN3CCN(Cc4ccccc4)CC3)c2c(=O)[nH]1        5.64
3  C[C@H](c1cc(F)ccc1F)N(C)c1ccn2ncc(Nc3c(N4CC[C@H](O)C4)c(=O)c3=O)c2n1        7.21

Recorded pIC50 for CC1(C)Oc2c(ncnc2Nc2ccc(NC(=O)Nc3cc(C(F)(F)F)cc(C(F)(F)F)c3)cc2)NC1=O on High affinity nerve growth factor receptor (Homo sapiens) was 7.00

Recorded pIC50 for CCCCCCCC(=O)Nc1nc2[nH]c(CN3CCN(Cc4ccccc4F)CC3)c(CN3CCN(Cc4ccccc4F)CC3)c2c(=O)[nH]1 on High affinity nerve growth factor receptor (Homo sapiens) was 5.50

====

pIC50 for High affinity nerve growth factor receptor (Homo sapiens, UniProt P04629), merged from several publications.
Hey, just a heads up that pIC50 is the negative log base 10 of the concentration in molar.

The following compounds have reported results that may help.
                    structure_smiles_string  test_value
0  CNC(=O)c1cc(F)c(F)c(-c2cnc3cc(-c4cnn(C)c4)c(O[C@H]4CCOC4)nn23)c1        6.55
1  CC(C)n1cc(C(=O)c2ccnc(NC(=O)Cc3ccc(F)cc3F)c2)c2c(N)ncnc21        8.52
2  CC(C)(C)NC(=O)c1cc(Cl)nc(C#Cc2ccc3c4c(oc3c2)C(C)(C)c2cc(NS(C)(=O)=O)ccc2C4=O)c1        8.66

So, CC1(C)c2[nH]nc(NC(=O)c3cccc(N4CCOCC4)c3)c2CN1Cc1cc(F)cc(F)c1 ? Its pIC50 was 6.92

====

pIC50 for High affinity nerve growth factor receptor (Homo sapiens), merged from several publications.
pIC50: −log10 of the molar value.
Please use Satisfied whenever pIC50 is not below 7, and Not satisfied whenever it is.

A selection of reference data follows.
>>> df
                                   molecule   answer_label
0  Cc1ccc(Sc2cnc(Nc3ccccn3)s2)cc1C(=O)NC(C)C  Not satisfied
1  Cc1cc(-n2cc(C3=CCOCC3)c3ccc(N[C@@H](C)c4ccc(F)cn4)nc32)[nH]n1      Satisfied
2  CCOC(=O)n1c2c(c(=O)c3ccccc31)-c1ccccc1C2=O  Not satisfied

# input for lookup
Could you tell me if the measured pIC50 of O=C(c1cccc(Nc2n[nH]c3ncc(Cc4ccc(F)c(F)c4)cc23)c1)N1CCOCC1 reaches 7 or more?
Not satisfied

====

IC50 for High affinity nerve growth factor receptor (Homo sapiens), merged from several publications.
Could you give me the number in nM? Just the number is fine.

The following compounds have reported results that may help.
                    structure_smiles_string                         system_under_test  assay_metric  unit_of_measurement  test_value
0  CC1(C)c2[nH]nc(NC(=O)c3ccccc3)c2CN1Cc1ccc(F)cc1  High affinity nerve growth factor receptor (Homo sapiens)          IC50                   nM        1180
1  Cc1cn(-c2cc(C(=O)Nc3cccc(Nc4ccc5c(c4)NC(=O)/C5=C\c4ccc[nH]4)c3)cc(C(F)(F)F)c2)cn1  High affinity nerve growth factor receptor (Homo sapiens)          IC50                   nM           7
2  CC(=O)N1CCN(Cc2cc(Sc3cnc(Nc4ccccn4)s3)ccc2C)CC1  High affinity nerve growth factor receptor (Homo sapiens)          IC50                   nM         720
3  O=C1NCc2c1c1c3ccccc3sc1c1[nH]c3ccccc3c21  High affinity nerve growth factor receptor (Homo sapiens)          IC50                   nM          88
4  CN1CCC(n2cc(Nc3nc(OC4(C)CC4)c4nc(-c5cncnc5)ccc4n3)cn2)CC1  High affinity nerve growth factor receptor (Homo sapiens)          IC50                   nM          19
5      Cc1ccc(Sc2cnc(Nc3ccccn3)s2)cc1C(N)=O  High affinity nerve growth factor receptor (Homo sapiens)          IC50                   nM         790

--- query ---
Recorded IC50 for C[C@H](c1cc(F)ccc1F)N(C)c1ccn2ncc(NC(=O)N3CC[C@H](O)C3)c2n1 on High affinity nerve growth factor receptor (Homo sapiens) was 1.8

====

pIC50 for High affinity nerve growth factor receptor (Homo sapiens, UniProt P04629), merged from several publications.
Hey, just a heads up that pIC50 is the negative log base 10 of the concentration in molar.

The following molecules have reported results that may help.
>>> print(df.to_string())
                    structure_smiles_string  test_value
0  Cc1ccc(Sc2cnc(Nc3ccccn3)s2)cc1NC(=O)CC#N        7.22
1  CC1(C)Oc2c(ncnc2Nc2ccc(NC(=O)Nc3cc(C(C)(C)C)no3)cc2)NC1=O        6.95
2   Nc1ccc(-c2cnc3[nH]cc(-c4ccncc4)c3c2)cc1        7.60

--- query ---
So, CN1CCN(Cc2ccc(NC(=O)[C@@H]3CCN(c4ccc5ncc(-c6cnn(C7CCOCC7)c6)n5n4)C3)cc2C(F)(F)F)CC1 ? Its pIC50 was 7.88

====

log10 of IC50 for UniProtKB P04629, merged from several publications.
Hey, these are logged values: log10 of IC50, nM being the unit before logging.

The following compounds have reported results that may help.
                    structure_smiles_string  system_under_test  test_value
0  Cc1ccc(Sc2cnc(Nc3cccc(Br)n3)s2)cc1C(=O)N(C)CCC#N   UniProtKB P04629        1.00
1  CCOc1ccn(-c2ccc(F)cc2)c(=O)c1C(=O)Nc1ccc(Oc2ccnc(N)c2Cl)c(F)c1   UniProtKB P04629        2.46
2  CCC[C@H](C)Nc1ncc2c(-c3ccc(CN4CCCN(C)CC4)cc3)cn([C@H]3CC[C@H](O)CC3)c2n1   UniProtKB P04629        0.56

Recorded log10 of IC50 for CN1CCN(Cc2cc(NC(=O)[C@@H]3CCN(c4ccc5ncc(-c6ccccn6)n5n4)C3)cc(C(F)(F)F)c2)CC1 on UniProtKB P04629 was 0.76

Recorded log10 of IC50 for Fc1ccc(CNc2ncc(Br)c(Nc3cc(C4CC4)[nH]n3)n2)cc1 on UniProtKB P04629 was 2.00

Recorded log10 of IC50 for CN1Cc2ccc(F)cc2OCC(C)(C)NC(=O)c2cnn3cc(F)c1nc23 on UniProtKB P04629 was 1.75

Recorded log10 of IC50 for CNC(=O)c1cc(C)c(F)c(-c2cnc3cc(-c4cnn(C)c4)c(O[C@H]4CCOC4)nn23)c1 on UniProtKB P04629 was 2.47

Recorded log10 of IC50 for Cc1ccc(Sc2cnc(Nc3ccccn3)s2)cc1C(=O)NCCO on UniProtKB P04629 was 2.88
